molecular target: ScBem1-D1; assay: SPOT peptide array binding signal intensity (averaged, normalized) (arbitrary units (background-subtracted, floor 0; scale differs between SH3 domains)); higher = stronger binding of the SH3 domain to the peptide
Known SPOT peptide array binding signal intensity of a selection of binders

// query Supply SPOT peptide array binding signal intensity value. Item: PPIPNAPLSPAPAVP
// result ≤ 0

// query Supply SPOT peptide array binding signal intensity value. Item: AATTSTPPLPRRRAT
// result 3

// query Supply SPOT peptide array binding signal intensity value. Item: EQEEIAPSLPSRNSI
// result ≤ 0

// query Supply SPOT peptide array binding signal intensity value. Item: VKPRQLFPIPLNKVD
// result ≤ 0

// query Supply SPOT peptide array binding signal intensity value. Item: RKRRTHLRLPLIRSN
// result 61.2

// query Supply SPOT peptide array binding signal intensity value. Item: PLRRTVMSLPGNHDI
// result 1.5

// query Supply SPOT peptide array binding signal intensity value. Item: NHSRSLFSLPGNQQS
// result 6.5
